Target: rat-species vanilloid receptor 1 (VR1/TRPV1) (Rattus norvegicus, UniProt O35433)
Construct: endogenous in cells; host or cells: primary cells dissociated from rat dorsal root ganglia (DRG), cultured 2-3 days with NGF
Sequence (O35433 whole entry): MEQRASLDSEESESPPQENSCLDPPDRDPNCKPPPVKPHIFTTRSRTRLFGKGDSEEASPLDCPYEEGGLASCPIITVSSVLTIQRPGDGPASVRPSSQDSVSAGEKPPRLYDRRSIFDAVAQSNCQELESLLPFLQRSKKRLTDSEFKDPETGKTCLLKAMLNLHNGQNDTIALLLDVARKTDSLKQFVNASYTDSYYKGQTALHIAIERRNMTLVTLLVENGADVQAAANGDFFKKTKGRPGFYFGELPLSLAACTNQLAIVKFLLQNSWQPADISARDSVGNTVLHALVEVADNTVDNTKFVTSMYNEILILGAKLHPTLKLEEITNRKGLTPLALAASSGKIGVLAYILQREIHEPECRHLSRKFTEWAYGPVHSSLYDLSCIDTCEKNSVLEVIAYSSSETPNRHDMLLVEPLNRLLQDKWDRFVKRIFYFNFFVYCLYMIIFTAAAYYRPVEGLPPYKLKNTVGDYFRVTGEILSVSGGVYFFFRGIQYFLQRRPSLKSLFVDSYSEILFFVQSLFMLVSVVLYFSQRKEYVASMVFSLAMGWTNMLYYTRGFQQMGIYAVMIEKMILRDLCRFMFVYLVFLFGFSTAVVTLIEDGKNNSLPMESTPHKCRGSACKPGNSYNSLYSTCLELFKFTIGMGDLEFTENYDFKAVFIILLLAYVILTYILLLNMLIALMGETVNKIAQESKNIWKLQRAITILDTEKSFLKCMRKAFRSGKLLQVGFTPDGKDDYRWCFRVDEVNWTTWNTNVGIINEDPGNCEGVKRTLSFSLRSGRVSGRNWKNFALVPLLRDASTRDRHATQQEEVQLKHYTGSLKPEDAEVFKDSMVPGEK
Assay: Functional testing on the vanilloid receptor 1, FLIPR Ca2+ influx in rat DRG cells, capsaicin
Format: cell-based
Conditions: capsaicin (Cap); includes values given in brackets after pAG
ATTRIBUTE_MEASURED: Ki (nM)
Lab book: enter the figure in nM, no units written.

CC(C)(C)c1cc(CNC(=O)Nc2ccc3c(c2)CCC3)n(-c2cccc(Cl)c2)n1 : 15.8
CC(C(=O)NCc1cc(C(F)(F)F)nn1-c1cccc(Cl)c1)c1cccc2ccc(O)cc12 (stereo not shown) : 7.6
Cc1nc2ccc(C(C)C(=O)NCc3cc(C(F)(F)F)nn3-c3cccc(Cl)c3)cc2s1 (stereo not shown) : 14.7

Dear colleague, I am looking for the recorded Ki of the following compound: CC(C)(C)c1cc(CNC(=O)Nc2cncc3ccccc23)n(-c2cccc(Cl)c2)n1
18.2

====

Target: hVR1 (Homo sapiens, UniProt Q8NER1)
Construct: expressed in transfected cells; host or cells: CHO K1 cells (ECACC), stably transfected
Sequence (Q8NER1 whole entry): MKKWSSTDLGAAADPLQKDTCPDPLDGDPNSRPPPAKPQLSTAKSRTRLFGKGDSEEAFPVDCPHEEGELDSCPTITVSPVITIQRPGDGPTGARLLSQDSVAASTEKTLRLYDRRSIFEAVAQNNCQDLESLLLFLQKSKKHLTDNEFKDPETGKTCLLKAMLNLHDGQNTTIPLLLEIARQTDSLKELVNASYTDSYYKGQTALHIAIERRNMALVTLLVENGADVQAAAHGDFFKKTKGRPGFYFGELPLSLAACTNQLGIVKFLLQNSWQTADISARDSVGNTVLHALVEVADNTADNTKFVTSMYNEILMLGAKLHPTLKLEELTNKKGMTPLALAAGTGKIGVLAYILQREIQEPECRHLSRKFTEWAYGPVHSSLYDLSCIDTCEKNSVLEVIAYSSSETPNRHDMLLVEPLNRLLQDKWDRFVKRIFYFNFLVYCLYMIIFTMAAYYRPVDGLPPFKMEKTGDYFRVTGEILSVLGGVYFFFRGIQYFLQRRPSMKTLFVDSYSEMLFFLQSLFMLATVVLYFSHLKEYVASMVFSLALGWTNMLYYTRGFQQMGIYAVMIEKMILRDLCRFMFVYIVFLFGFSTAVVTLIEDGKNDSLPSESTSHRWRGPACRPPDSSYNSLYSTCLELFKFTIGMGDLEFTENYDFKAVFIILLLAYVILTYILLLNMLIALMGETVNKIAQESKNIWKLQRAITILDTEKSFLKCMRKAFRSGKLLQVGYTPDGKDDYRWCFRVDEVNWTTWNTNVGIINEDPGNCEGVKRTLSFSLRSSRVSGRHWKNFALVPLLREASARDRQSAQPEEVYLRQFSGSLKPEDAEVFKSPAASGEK
Assay: Functional test on VR1, FLIPR Ca2+ influx in transfected CHO K1 cells, capsaicin
Assay type: cell-based, human being
Conditions: capsaicin (Cap); includes values given in brackets after pAG; read-out: Ki (human being) [nM] Cap
Label Criterion met when Ki is strictly below 30 nM; at or above that, label Criterion not met.

Some solved entries appear below for comparison.
CC(C(=O)NCc1cc(C(F)(F)F)nn1-c1cccc(Cl)c1)c1cccc2cnccc12 (centres unmarked) [Example 64] : Criterion met
O=C(NCc1cc(C(F)(F)F)nn1-c1cccc(Cl)c1)Nc1ccc2scnc2c1 [Example 97] : Criterion met
CC(C)(C)c1cc(CNC(=O)Nc2ccc3c(c2)CCC3)n(-c2cccc(F)c2)n1 [Example 176] : Criterion not met

# strict comparison: is reported Ki < 30 nM? input = CC(C(=O)NCc1cc(C(C)(C)C)nn1-c1cccc(Cl)c1)c1cccc2[nH]ccc12 (centres unmarked) [Example 25]
Criterion met

Try O=C(NCc1cc(C(F)(F)F)nn1-c1cccc(Cl)c1)Nc1c(Cl)ccc2[nH]ncc12 [Example 205] next.
Criterion met

Try CC(C(=O)NCc1cc(C2CC2)nn1-c1cccc(Cl)c1)c1ccc2c(c1)OCO2 (centres unmarked) [Example 183] next.
Criterion met

Try CC(C(=O)NCc1cc(C(C)(C)C)nn1-c1cccc(Cl)c1)c1cccc2cnccc12 (centres unmarked) [Example 63] next.
Criterion met

Try CC(C(=O)NCc1cc(C(C)(C)C)nn1-c1cccc(Cl)c1)c1ccc2c(c1)OCCCO2 (centres unmarked) [Example 15] next.
Criterion met

Try O=C(NCc1cc(C(F)(F)F)nn1-c1cccc(Cl)c1)Nc1cccc2cnccc12 [Example 110] next.
Criterion met

Try Cc1ccc(-n2nc(C(F)(F)F)cc2CNC(=O)Nc2ccc3c(c2)CCC3)cc1C [Example 181] next.
Criterion not met

Try CC(C)(C)c1cc(CNC(=O)Cc2ccc3c(c2)OCCO3)n(-c2ccc(Cl)cc2)n1 [Example 12] next.
Criterion not met

====

Biological target: hVR1 (Homo sapiens)
Construct: expressed in transfected cells; host or cells: CHO K1 cells (ECACC), stably transfected
Assay: Functional test on VR1, FLIPR Ca2+ influx in transfected CHO K1 cells, capsaicin
Format: cell-based, human being
Conditions: capsaicin (Cap); includes values given in brackets after pAG; read-out: Ki (human being) [nM] Cap
ATTRIBUTE_MEASURED: log10 Ki (log10 of the value in nM)
The base-10 logarithm of Ki, taken with Ki in nM, is what appears here.

// solved cases for log10 Ki follow
CC(C(=O)NCc1cc(C(F)(F)F)nn1-c1cccc(Cl)c1)c1ccc2c(c1)C=CC(C)(C)O2 (stereo not drawn) [Example 190] : 1.48
CC(C)(C)c1cc(CNC(=O)Nc2cccc3ccncc23)n(-c2cccc(Cl)c2)n1 [Example 108] : -0.30
CC(C(=O)NCc1cc(C(F)(F)F)nn1-c1cccc(Cl)c1)c1ccc2c(cnn2S(C)(=O)=O)c1 (stereo not drawn) [Example 191] : -0.22

Dear colleague, I am looking for the recorded log10 Ki of the following compound: COc1ccc2cccc(C(C)C(=O)NCc3cc(C(F)(F)F)nn3-c3cccc(Cl)c3)c2c1 (stereo not drawn) [Example 212]
0.92

Try CC(C(=O)NCc1cc(C(C)(C)C)nn1-c1cccc(Cl)c1)c1ccc2c(c1)OCCO2 (stereo not drawn) [Example 13] next.
0.81

Try CC(C(=O)NCc1cc(C(C)(C)C)nn1-c1cccc(Cl)c1)c1ccc2c(c1)CCN2S(C)(=O)=O (stereo not drawn) [Example 10] next.
1.88

Try CC(C(=O)NCc1cc(C(F)(F)F)nn1-c1cccc(Cl)c1)c1ccc2[nH]ncc2c1 (stereo not drawn) [Example 35] next.
-0.52

Try CC(C(=O)NCc1cc(C(C)(C)C)nn1-c1ccc(F)c(Cl)c1)c1cccc2cnccc12 (stereo not drawn) [Example 69] next.
-0.70

====

Target: hVR1 (Homo sapiens, UniProt Q8NER1)
Construct: expressed in transfected cells; host or cells: CHO K1 cells (ECACC), stably transfected
Assay: Functional test on VR1, FLIPR Ca2+ influx in transfected CHO K1 cells, capsaicin
Format: cell-based, human being
Conditions: capsaicin (Cap); includes values given in brackets after pAG; read-out: Ki (human being) [nM] Cap
Label t when Ki is strictly below 8 nM; at or above that, label f.

# strict comparison: is reported Ki < 8 nM? input = CC(C(=O)NCc1cc(C(F)(F)F)nn1-c1cccc(Cl)c1)c1ccc2ncsc2c1 (stereo not shown)
t

Try O=C(NCc1cc(C(F)(F)F)nn1-c1cccc(Cl)c1)Nc1ccc2ncsc2c1 next.
t

Try O=C(NCc1cc(C(F)(F)F)nn1-c1cccc(Cl)c1)Nc1ccc2c(c1)OCO2 next.
f

Try CC(C(=O)NCc1cc(C(F)(F)F)nn1-c1ccc(Cl)cc1)c1cccc2cnccc12 (stereo not shown) next.
t

Try CC(C(=O)NCc1cc(C(F)(F)F)nn1-c1cccc(Cl)c1)c1cccc2ccc(O)cc12 (stereo not shown) next.
t

Try CC(C(=O)NCc1cc(C(F)(F)F)nn1-c1cccc(Cl)c1)c1ccc2cccnc2c1 (stereo not shown) next.
t

====

Molecular target: hVR1 (Homo sapiens)
Construct: expressed in transfected cells; host or cells: CHO K1 cells (ECACC), stably transfected
Assay: Functional test on VR1, FLIPR Ca2+ influx in transfected CHO K1 cells, capsaicin
Type: cell-based, human being
Details: capsaicin (Cap); includes values given in brackets after pAG; read-out: Ki (human being) [nM] Cap
Label satisfied when Ki is strictly below 30 nM; at or above that, label not satisfied.

Some solved entries appear below for comparison.
CC(C(=O)NCc1cc(C(F)(F)F)nn1-c1cccc(Cl)c1)c1cccc2cn[nH]c12 (stereo not shown) [Example 210] : satisfied
CC(C(=O)NCc1cc(C(F)(F)F)nn1-c1cccc(Cl)c1)c1cccc2c1CCCC2 (stereo not shown) [Example 2] : satisfied
O=C(NCc1cc(C(F)(F)F)nn1-c1ccc(OC(F)(F)F)cc1)Nc1ccc2c(c1)CCC2 [Example 180] : not satisfied
O=C(NCc1cc(C(F)(F)F)nn1-c1ccc(F)cc1)Nc1ccc2c(c1)CCC2 [Example 175] : not satisfied
Cc1cc2c(C(C)C(=O)NCc3cc(C(F)(F)F)nn3-c3cccc(Cl)c3)cccc2cn1 (stereo not shown) [Example 65] : satisfied

# strict comparison: is reported Ki < 30 nM? input = CCCCCn1nc(C(F)(F)F)cc1CNC(=O)C(C)c1cccc2[nH]ncc12 (stereo not shown) [Example 199]
not satisfied

Try O=C(NCc1cc(C(F)(F)F)nn1-c1cccc(Cl)c1)Nc1ccc2c(c1)OCCO2 [Example 84] next.
not satisfied

Data origin: patent US8334315B2
